Biological target: T1, human TL1A (human, UniProt O95150 72-251)
T1 construct: Antigen in SPR and ELISA; Also used here for places that print only 'TL1A' and for endogenous TL1A in human whole blood; also called TNFSF15
T1 sequence (looked up): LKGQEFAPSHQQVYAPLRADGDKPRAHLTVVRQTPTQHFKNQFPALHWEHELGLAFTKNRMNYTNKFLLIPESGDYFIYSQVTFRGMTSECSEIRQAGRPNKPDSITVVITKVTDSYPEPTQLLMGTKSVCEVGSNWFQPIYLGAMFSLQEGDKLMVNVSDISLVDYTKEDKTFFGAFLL
Assay: SPR, Fab format
pKd: −log10 of the molar value.
endpoint: pKd

# binder, measurement
records = [
    ("Antibody 17 (Fab format) (Fab, V domains shown, High priority lead, Fab format) VH: QVQLQESGPGLVRPSQTLSLTCTVSGFDMGDTYMHWVRQRPGRGLEWMGRIEPAAGHTKYNPSLKSRVTITRDTSKNQVSLRLSSVTAADTAVYYCVRSGGLPDVWGQGSLVTVSS VL: DIQMTQSPSSLSASVGDRVTITCRASQGVEYMYWYQQKPGKAPKLLIYGASNLASGVPSRFSGSGSGTDFTFTISSLQPEDIATYYCQQWEGNPRTFGQGTKVEIK", "> 9.00"),
    ("Antibody 14 (Fab format) (Fab, V domains shown, High priority lead, Fab format) VH: QVQLQESGPGLVRPSQTLSLTCTVSGLDPDDTYMHWVRQRPGRGLEWMGRIEPAGGHTKYNPSLKSRVTITRDTSKNQVSLRLSSVTAADTAVYYCVISGGLPDVWGQGSLVTVSS VL: DIQMTQSPSSLSASVGDRVTITCRASQGIYYMYWYQQKPGKAPKLLIYGASNLASGVPSRFSGSGSGTDFTFTISSLQPEDIATYYCQQWEGNPRTFGQGTKVEIK", "> 9.00"),
    ("Antibody 11 (Fab format) (Fab, V domains shown, High priority lead, Fab format) VH: QVQLQESGPGLVRPSQTLSLTCTVSGFDMGDTYMHWVRQRPGRGLEWMGRIEPAGGHTKYNPSLKSRVTITRDTSKNQVSLRLSSVTAADTAVYYCVRSGGMPDVWGQGSLVTVSS VL: DIQMTQSPSSLSASVGDRVTITCRASQGVEYMYWYQQKPGKAPKLLIYSASNLASGVPSRFSGSGSGTDFTFTISSLQPEDIATYYCQQWEGNPRTFGQGTKVEIK", "> 9.00"),
    ("Antibody 13 (Fab format) (Fab, V domains shown, High priority lead, Fab format) VH: QVQLQESGPGLVRPSQTLSLTCTVSGFDYQDTYMHWVRQRPGRGLEWMGRIDPASGHTKYNPSLKSRVTITRDTSKNQVSLRLSSVTAADTAVYYCAVSGGMPDVWGQGSLVTVSS VL: DIQMTQSPSSLSASVGDRVTITCRASQGVEYMYWYQQKPGKAPKLLIYATSNLASGVPSRFSGSGSGTDFTFTISSLQPEDIATYYCQQWEGNPRTFGQGTKVEIK", "> 9.00"),
    ("Antibody 16 (Fab format) (Fab, V domains shown, High priority lead, Fab format) VH: QVQLQESGPGLVRPSQTLSLTCTVSGFDMQSTYMHWVRQRPGRGLEWMGRIEPAGGHTKYNPSLKSRVTITRDTSKNQVSLRLSSVTAADTAVYYCVRSGGLPDVWGQGSLVTVSS VL: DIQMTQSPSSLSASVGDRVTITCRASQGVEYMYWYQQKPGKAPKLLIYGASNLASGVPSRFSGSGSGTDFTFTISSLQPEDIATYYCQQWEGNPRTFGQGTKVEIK", "> 9.00"),
    ("Antibody 10 (Fab format) (Fab, V domains shown, High priority lead, Fab format) VH: QVQLQESGPGLVRPSQTLSLTCTVSGLDPDDTYMHWVRQRPGRGLEWMGRIEPAGGHTKYNPSLKSRVTITRDTSKNQVSLRLSSVTAADTAVYYCVISGGLPDVWGQGSLVTVSS VL: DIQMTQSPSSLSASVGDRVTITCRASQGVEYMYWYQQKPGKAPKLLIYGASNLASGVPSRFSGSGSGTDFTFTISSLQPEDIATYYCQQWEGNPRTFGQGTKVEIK", "> 9.00"),
    ("Antibody 15 (Fab format) (Fab, V domains shown, High priority lead, Fab format) VH: QVQLQESGPGLVRPSQTLSLTCTVSGFDIQDTYMHWVRQRPGRGLEWMGRIEPAGGHTKYNPSLKSRVTITRDTSKNQVSLRLSSVTAADTAVYYCVRSGGLPDAWGQGSLVTVSS VL: DIQMTQSPSSLSASVGDRVTITCRASQGIYYMYWYQQKPGKAPKLLIYGASNLASGVPSRFSGSGSGTDFTFTISSLQPEDIATYYCQQWEGNPRTFGQGTKVEIK", "> 9.00"),
]
